B1: LOC100129726 (parent)
chain: AKAADSPTRNDLESGLGHFSLRVH

Variants of: B1
method-notes: protein stability index of a GFP-peptide fusion (GPS, HEK-293T) (PSI 1-6); higher = more stable;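 note: lentivirally expressed fusions sorted by FACS into six bins by GFP to DsRed ratio, PSI derived from sequencing read proportions per bin multiplied by bin number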
stated-conditions: c terminus: a fixed tail appended
assay-readout: protein stability index
One number for each entry.

Worked examples follow.
S20L | 2.09
R9V | 2.71

Parameter requested: protein stability index. Apply to each item below.
1. S14D
2. E13W
3. S6T
4. P7M

1. 3.85
2. 1.85
3. 3.39
4. 2.57
